Reference source for all entries: the supplement of paper PMC7125110

B1: glmS ribozyme (parent)
chain: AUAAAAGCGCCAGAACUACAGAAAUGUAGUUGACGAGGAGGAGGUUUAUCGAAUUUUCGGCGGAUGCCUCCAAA

Variants of: B1
assayOverview: self-cleavage kobs at 2500 uM GlcN6P; higher = faster cleavage; RNA array
conditionParameters: with glucosamine-6-phosphate
This sample holds only a part of the variants without activity.
# self-cleavage kobs at 2500 uM GlcN6P per record follows

variantDesignation	self-cleavage kobs at 2500 uM GlcN6P
G7C U45A G51U G59U	< 1e-05 s⁻¹
G9U U54C G63C	< 1e-05 s⁻¹
C11A A48U	< 1e-05 s⁻¹
G43A U46G C70G	< 1e-05 s⁻¹
A14G U46C A48C C68U	8.06e-05 s⁻¹
G38U A53C	< 1e-05 s⁻¹
G40U C50G G62A	< 1e-05 s⁻¹
G7C C8A U30C A33C	< 1e-05 s⁻¹
A15C C71U	0.00266 s⁻¹
G37C G38U	< 1e-05 s⁻¹
U31G A48U	8.46e-05 s⁻¹
G35U A48U U56G	< 1e-05 s⁻¹
U31G U55A U69G	7.74e-05 s⁻¹
A36U G44C U46G	< 1e-05 s⁻¹
A15G U46G G51C U55C G59A G63U	< 1e-05 s⁻¹
C16A A42U A64U	< 1e-05 s⁻¹
G13U C71A	0.000151 s⁻¹
U46A U55G	0.001 s⁻¹
C11A U65G C70G C71A	0.000187 s⁻¹
A14C A36C U65G	< 1e-05 s⁻¹
G13U G41U C61G C71G	< 1e-05 s⁻¹
C8A G44C U46A	< 1e-05 s⁻¹
G13C A14C G35C	< 1e-05 s⁻¹
C10A C34U C50G G62U	8.51e-05 s⁻¹
G32C A33U	< 1e-05 s⁻¹
A53G U54G	0.00388 s⁻¹
C8A A12C	< 1e-05 s⁻¹
A15G G51U C61A	< 1e-05 s⁻¹
U30A U49G	7.22e-05 s⁻¹
C10A U31G	< 1e-05 s⁻¹
G29U G37C U46G	< 1e-05 s⁻¹
G7A G37C A42U	< 1e-05 s⁻¹
C34U G59A C71U	< 1e-05 s⁻¹
G26U A48C	0.000222 s⁻¹
A6C G37C A39G G40U G41U	< 1e-05 s⁻¹
U46C A53G	0.0025 s⁻¹
G32C U55C	2.78e-05 s⁻¹
G7C C11G G37U C58U	< 1e-05 s⁻¹
A48U U65G	8.19e-05 s⁻¹
A52G U57A C58G C71U	7.76e-05 s⁻¹
A6C C34A A39G U45A	< 1e-05 s⁻¹
U31A A42U	5.06e-05 s⁻¹
C8G G40A	< 1e-05 s⁻¹
A48C U55C	0.000327 s⁻¹
G9U G32C A33G A39G A48U C61U G63U A64U	< 1e-05 s⁻¹
